molecular target: Cytochrome P450 2D6 (Homo sapiens); experiment: Cytochrome P450 family 2 subfamily D member 6 (CYP2D6) small molecule antagonists: luciferase biochemical (cell-free) qHTS assay (AID 1645840); conditions: P450-Glo CYP2D6 enzyme, luciferin luminescence, 1 h; series mostly up to 57.4 µM; further: nearly all actives have a fitted effect of over 55% in size
Inconclusive results are not listed. Active and inactive are the calls of the source. The call rests on the fitted dose curve; in most records, active means well fitted inhibition curve with a large enough effect in the repeat runs; inconclusive means weak or mixed curves; inactive means flat fitted curve, though single readings scatter.
Outcome field: choose from active, inactive

Record excerpt, results attached:
{"compound": "Cc1onc(-c2c(Cl)cccc2Cl)c1C(=O)N[C@@H]1C(=O)N2[C@@H]1SC(C)(C)[C@@H]2C(=O)O", "answer label": "inactive"}
{"compound": "CCOC(=O)c1cccc(N)c1", "answer label": "inactive"}

Challenge: Kindly provide the recorded test outcome for the following compound: O=C(COc1ccc(Cl)cc1)N1CCN(Cc2ccc3c(c2)OCO3)CC1
Response given: active

Challenge: Per the records of this test, what outcome belongs to CCCC(=O)Nc1ccc(OCC(O)CNC(C)C)c(C(C)=O)c1 (configuration not stated) ?
Response given: inactive

Challenge: Test call for this compound, please: CC(=O)N(O)CCCCCNC(=O)CCC(=O)N(O)CCCCCNC(=O)CCC(=O)N(O)CCCCCN
Response given: inactive

Challenge: What did the test return for Oc1ccc(Cl)c2cccnc12 ?
Response given: inactive

Challenge: For OC(CCN1CCCCC1)(c1ccccc1)c1ccccc1 , which call appears in the assay record?
Response given: active

Challenge: Assay result, entry COC(=O)C1=C(C)NC(C)=C(C(=O)O[C@@H]2CCCN(Cc3ccccc3)C2)[C@@H]1c1cccc([N+](=O)[O-])c1 — outcome?
Response given: active

Challenge: Short answer needed: outcome of this test for CCCCCCC[N+](CC)(CC)CCCCc1ccc(Cl)cc1 ?
Response given: active

Challenge: Write down the call the test reported for this compound. Item: OCc1ccccc1O
Response given: inactive

Challenge: Test call, this compound: C#C[C@]1(O)CC[C@H]2[C@@H]3CCc4cc(OC5CCCC5)ccc4[C@H]3CC[C@@]21C
Response given: inactive

Challenge: Test call for this compound, please: Cc1cc(N)c2cc(NC(=O)Nc3ccc4nc(C)cc(N)c4c3)ccc2n1
Response given: active

Challenge: So what was the verdict on Cc1c(C)n(CCN(C)C)c2ccc(C(=O)OCCN(C)C)cc12 in this test?
Response given: inactive

Challenge: Could you check what this test reported for Nc1nc2ncc(CNc3ccc(C(=O)N[C@@H](CCC(=O)O)C(=O)O)cc3)nc2c(=O)[nH]1 ?
Response given: inactive

Challenge: Recorded test call requested for O=C1[C@H]2CCCC[C@H]2C(=O)N1CCCCN1CCN(c2nsc3ccccc23)CC1
Response given: active

Challenge: Short answer needed: outcome of this test for CNC(=O)CN(CCN(CCN(CC(=O)[O-])CC(=O)NC)CC(=O)[O-])CC(=O)[O-].O.[Gd+3] ?
Response given: inactive

The origin of these recorded values is PubChem BioAssay (NCATS).
